Collected IC50 values appear next to each entry.
- experimental target: UniProt:Q9UM73
- Sequence (Q9UM73 19-1620): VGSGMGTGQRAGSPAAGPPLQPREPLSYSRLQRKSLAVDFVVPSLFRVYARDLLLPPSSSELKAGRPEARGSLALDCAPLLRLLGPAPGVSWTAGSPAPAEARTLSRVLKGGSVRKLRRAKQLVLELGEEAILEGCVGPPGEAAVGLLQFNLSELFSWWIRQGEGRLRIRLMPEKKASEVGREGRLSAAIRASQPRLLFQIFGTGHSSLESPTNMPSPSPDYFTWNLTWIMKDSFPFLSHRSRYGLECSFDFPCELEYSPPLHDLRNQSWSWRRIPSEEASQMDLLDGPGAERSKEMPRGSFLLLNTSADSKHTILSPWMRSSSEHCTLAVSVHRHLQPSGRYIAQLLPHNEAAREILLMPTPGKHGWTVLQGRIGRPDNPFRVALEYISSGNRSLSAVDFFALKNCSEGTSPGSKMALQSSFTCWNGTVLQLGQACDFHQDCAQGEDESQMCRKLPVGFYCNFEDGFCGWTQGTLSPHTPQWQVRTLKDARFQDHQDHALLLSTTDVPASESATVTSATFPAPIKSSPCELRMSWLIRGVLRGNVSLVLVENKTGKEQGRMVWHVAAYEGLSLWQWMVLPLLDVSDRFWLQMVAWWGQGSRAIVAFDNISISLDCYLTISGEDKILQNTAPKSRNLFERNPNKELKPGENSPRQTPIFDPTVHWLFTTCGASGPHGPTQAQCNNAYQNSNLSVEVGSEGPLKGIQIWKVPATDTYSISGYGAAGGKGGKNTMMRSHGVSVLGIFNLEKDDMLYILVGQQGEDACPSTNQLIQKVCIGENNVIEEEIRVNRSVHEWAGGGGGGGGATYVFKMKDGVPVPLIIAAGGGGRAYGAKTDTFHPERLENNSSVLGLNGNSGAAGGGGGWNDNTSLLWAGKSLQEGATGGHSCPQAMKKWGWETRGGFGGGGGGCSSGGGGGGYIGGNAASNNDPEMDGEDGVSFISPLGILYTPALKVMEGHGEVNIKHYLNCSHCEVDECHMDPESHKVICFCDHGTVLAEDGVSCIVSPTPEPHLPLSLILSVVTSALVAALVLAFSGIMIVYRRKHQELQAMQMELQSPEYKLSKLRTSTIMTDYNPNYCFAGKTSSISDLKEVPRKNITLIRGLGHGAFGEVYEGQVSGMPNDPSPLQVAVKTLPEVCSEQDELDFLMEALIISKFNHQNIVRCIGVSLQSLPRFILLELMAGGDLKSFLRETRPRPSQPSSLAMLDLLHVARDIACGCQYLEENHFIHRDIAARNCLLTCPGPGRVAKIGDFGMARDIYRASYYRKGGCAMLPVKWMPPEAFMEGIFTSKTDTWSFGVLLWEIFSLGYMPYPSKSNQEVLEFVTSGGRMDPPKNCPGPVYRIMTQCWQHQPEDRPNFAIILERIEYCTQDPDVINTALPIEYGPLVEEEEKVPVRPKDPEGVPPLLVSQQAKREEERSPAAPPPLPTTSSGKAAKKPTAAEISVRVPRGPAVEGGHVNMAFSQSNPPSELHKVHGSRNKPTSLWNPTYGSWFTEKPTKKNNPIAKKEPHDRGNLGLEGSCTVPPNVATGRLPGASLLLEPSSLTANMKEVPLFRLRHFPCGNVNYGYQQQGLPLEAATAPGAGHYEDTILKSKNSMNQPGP
- assay details: In vitro kinase activity assay (LANCE TR-FRET);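 also: kinase reactions with ATP and a poly-GT peptide substrate, phosphorylated product read by time-resolved FRET, 11-point curve from 10^−11 to 10^−5 M, DMSO as negative control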
- Format: biochemical
- measurement conditions: read-out: ALK (nM) IC50
recorded endpoint: IC50

# compound, recorded endpoint, test result
rows = [
    ("CC(Cc1c(F)c(F)cc(F)c1F)Nc1cc[nH]c(=O)c1-c1nc2cc3c(cc2n1C)CN(C)C3=O (centres unmarked) [Compound 43]", "IC50", "> 10000 nM"),
    ("C[C@@H](Cc1cc(F)ccc1F)Nc1cc[nH]c(=O)c1-c1nc2cc3c(cc2[nH]1)C(=O)N(C)C3=O [Compound 32]", "IC50", "> 300 nM"),
    ("CC(Cc1c(F)c(F)cc(F)c1F)Nc1cc[nH]c(=O)c1-c1nc2cc3c(cc2[nH]1)C(=O)N(C)C3=O (centres unmarked) [Compound 41]", "IC50", "> 10000 nM"),
    ("CC(Cc1c(F)c(F)cc(F)c1F)Nc1cc[nH]c(=O)c1-c1nc2cc3c(cc2n1C)C(=O)N(C)C3 (centres unmarked) [Compound 43a]", "IC50", "> 10000 nM"),
    ("C[C@@H](Cc1cc(F)cc(F)c1F)Nc1cc[nH]c(=O)c1-c1nc2cc3c(cc2[nH]1)C(=O)N([C@@H](C)Cc1cc(F)cc(F)c1F)C3=O (stereo in doubt) [Compound 40]", "IC50", "> 10000 nM"),
]
